B1: library; numbered along this chain (parent)
chain: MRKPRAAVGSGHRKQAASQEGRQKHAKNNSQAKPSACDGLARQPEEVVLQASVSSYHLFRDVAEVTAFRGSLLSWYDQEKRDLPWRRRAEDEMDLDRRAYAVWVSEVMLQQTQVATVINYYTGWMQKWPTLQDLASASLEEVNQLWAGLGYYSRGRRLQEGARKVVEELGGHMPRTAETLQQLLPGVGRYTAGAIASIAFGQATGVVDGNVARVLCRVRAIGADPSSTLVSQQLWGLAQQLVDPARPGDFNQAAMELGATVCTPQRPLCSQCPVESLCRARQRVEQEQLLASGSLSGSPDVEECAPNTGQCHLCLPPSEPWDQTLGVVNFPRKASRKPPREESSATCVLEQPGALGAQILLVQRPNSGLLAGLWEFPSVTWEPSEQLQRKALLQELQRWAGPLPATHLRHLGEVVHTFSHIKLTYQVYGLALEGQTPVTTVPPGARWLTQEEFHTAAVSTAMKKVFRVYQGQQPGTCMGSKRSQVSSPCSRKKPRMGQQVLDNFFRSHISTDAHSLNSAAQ

Variants of: B1
Assay: 8OG:A repair function score (normalized; synonymous = 0, nonsense = -1) (normalized log-likelihood score); higher = more repair activity (WT-like);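 also: cells sorted at 72 h after reporter transfection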
Conditions: with 8OG:A DNA repair reporter (GFP) in HEK-293 MUTYH KO cells
Parameter: 8OG:A repair function score. Scope: all listed entries.
experimental_readout: 8OG:A repair function score

1) S294V    -0.0111
2) G193T    -0.169
3) A220Y    -0.75
4) A147F    -0.305
5) L387G    -0.154
6) R88Y    -0.0224
7) R154Y    -1.21
8) Q110C    -0.75
9) S270V    -0.0277
10) A135I    -0.611
11) A63R    0.00494

// provenance: the supplement of paper PMC11908140
